biological target: CK2α′2β2 (Homo sapiens, UniProt P19784); construct: GST (N); made in house; host or cells: E. coli BL21(DE3)trxB; assay: CK2 activity, phosphorylation of synthetic peptide […], CK2α′2β2 holoenzyme; assay type: biochemical; details: 50 μM synthetic peptide as substrate, 20 µM ATP
Sequence (P19784 whole entry, one chain of several): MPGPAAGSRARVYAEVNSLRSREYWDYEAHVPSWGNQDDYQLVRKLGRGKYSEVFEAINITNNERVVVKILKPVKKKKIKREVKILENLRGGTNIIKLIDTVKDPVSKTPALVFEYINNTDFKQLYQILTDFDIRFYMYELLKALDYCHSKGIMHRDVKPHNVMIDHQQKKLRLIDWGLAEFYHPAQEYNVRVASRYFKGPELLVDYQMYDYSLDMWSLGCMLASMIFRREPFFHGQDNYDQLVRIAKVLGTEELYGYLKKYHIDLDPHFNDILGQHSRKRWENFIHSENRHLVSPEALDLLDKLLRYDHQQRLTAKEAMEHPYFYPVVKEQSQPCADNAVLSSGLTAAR
Recorded measurements of pIC50, one per entry
# reply with the number alone; pIC50 is -log10 of concentration in mol/L

compound: COc1c(-c2ccc(O)cc2)oc2cc(OC3OC(C(=O)O)C(O)C(O)C3O)cc(O)c2c1=O (stereo not drawn)
pIC50: 5.28

Query :: Tell me reported pIC50 for O=c1cc(-c2ccc(O)c(O)c2)oc2cc(OC3OC(CO)C(O)C(O)C3O)cc(O)c12 (stereo not drawn) [Compound 5a, luteolin 7-O-glucoside] , tested with CK2α′2β2 (Homo sapiens, UniProt P19784).
Result :: 5.24

Query :: Tell me reported pIC50 for "O=C(O)[C@H]1O[C@@H](Oc2cc3oc(-c4ccc(O)cc4)cc(=O)c3c(O)c2O)[C@H](O)[C@@H](O)[C@@H]1O" , tested with CK2α′2β2 (Homo sapiens, UniProt P19784).
Result :: 5.01

###

Target: CK2α2β2 (Homo sapiens, UniProt P68400)
Construct: GST (N); made in house; host or cells: E. coli BL21(DE3)trxB
Sequence (P68400 whole entry): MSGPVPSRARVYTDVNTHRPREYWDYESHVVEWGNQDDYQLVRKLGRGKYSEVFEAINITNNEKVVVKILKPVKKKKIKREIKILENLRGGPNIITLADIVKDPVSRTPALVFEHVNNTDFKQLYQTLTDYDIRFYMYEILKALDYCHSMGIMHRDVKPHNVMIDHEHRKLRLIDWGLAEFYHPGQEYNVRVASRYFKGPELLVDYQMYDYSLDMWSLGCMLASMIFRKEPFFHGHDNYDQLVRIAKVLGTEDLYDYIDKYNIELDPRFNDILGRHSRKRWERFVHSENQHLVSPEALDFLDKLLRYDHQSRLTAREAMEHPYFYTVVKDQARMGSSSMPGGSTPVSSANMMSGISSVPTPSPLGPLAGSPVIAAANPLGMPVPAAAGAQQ
Sequence (P67870 whole entry partner): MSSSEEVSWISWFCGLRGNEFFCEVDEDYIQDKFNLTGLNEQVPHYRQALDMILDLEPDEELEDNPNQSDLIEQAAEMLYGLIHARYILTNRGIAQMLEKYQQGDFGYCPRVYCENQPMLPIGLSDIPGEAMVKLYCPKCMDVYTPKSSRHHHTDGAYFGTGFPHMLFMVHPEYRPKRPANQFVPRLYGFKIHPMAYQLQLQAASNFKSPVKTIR
Assay: CK2 activity, phosphorylation of yeast P2B protein substrate, CK2α2β2 holoenzyme
Format: biochemical
Conditions: 10 μM yeast P2B as substrate, 20 µM ATP
Method: CK2α2β2 and CK2α′2β2 holoenzymes were purified as described elsewhere. Briefly, both catalytic subunits were overexpressed as GST fusion proteins, whereas the regulatory subunit was expressed as His-tagged protein. […] CK2 activity was determined in a standard reaction mixture (40 μL of final volume) containing 20 mM Tris–HCl buffer, pH 7.5, 15 mM MgCl2, 6 mM β-mercaptoethanol, and 20 μM [γ-^32P]ATP (specific radioactivity 500–1000 cpm/pmol) in the presence of 10 μM yeast P2B as substrate. […]
Recorded measurements of IC50, one per entry
Reply numerically in µM, unit not repeated.

compound: O=C(O)C1OC(Oc2cc(O)c3c(=O)cc(-c4ccc(O)cc4)oc3c2)C(O)C(O)C1O (stereo not shown) [Compound 4b, Apigenin 7-O-glucuronide]
tested.on: CK2α2β2 (Homo sapiens, UniProt P68400)
unit.tag: µM
IC50: 12.4

compound: COc1c(-c2ccc(O)cc2)oc2cc(O)cc(O)c2c1=O [Compound 6, isokaempferide]
tested.on: CK2α2β2 (Homo sapiens, UniProt P68400)
unit.tag: µM
IC50: 17.5

compound: COc1cc2oc(-c3ccc(O)c(O)c3)cc(=O)c2c(O)c1O [Compound 2, pedalitin]
tested.on: CK2α2β2 (Homo sapiens, UniProt P68400)
unit.tag: µM
IC50: 0.2

compound: COc1cc(-c2cc(=O)c3c(O)cc(O)cc3o2)cc(OC)c1O [Compound 3, tricin]
tested.on: CK2α2β2 (Homo sapiens, UniProt P68400)
unit.tag: µM
IC50: 1.55

Query :: Which measured IC50 value corresponds to O=c1cc(-c2ccc(O)cc2)oc2cc(OC3OC(CO)C(O)C(O)C3O)cc(O)c12 (stereo not shown) [Compound 4a, apigenin 7-O-glucoside] ?
Result :: 11.2

###

Recorded measurements of pIC50, one per entry
target: CK2α2β2 (Homo sapiens); construct: GST (N); made in house; host or cells: E. coli BL21(DE3)trxB; assay: CK2 activity, phosphorylation of yeast P2B protein substrate, CK2α2β2 holoenzyme; assay type: biochemical; conditions: 10 μM yeast P2B as substrate, 20 µM ATP
# reply with the number alone; pIC50 is -log10 of concentration in mol/L

compound: O=c1cc(-c2ccc(O)c(O)c2)oc2cc(OC3OC(CO)C(O)C(O)C3O)cc(O)c12 (stereo not drawn) [Compound 5a, luteolin 7-O-glucoside]
assay.endpoint: pIC50
reported.value: 4.51

compound: O=c1cc(-c2ccc(O)cc2)oc2cc(OC3OC(CO)C(O)C(O)C3O)c(O)c(O)c12 (stereo not drawn) [Compound 9a, scutellarein 7-O-glucoside]
assay.endpoint: pIC50
reported.value: 6.40

Query :: Which measured pIC50 value corresponds to O=C1/C(=C/c2ccc(O)c(O)c2)Oc2cc(O)cc(O[C@@H]3O[C@H](CO)[C@@H](O)[C@H](O)[C@H]3O)c21 [Compound 10, cernuoside] ?
Result :: 5.43
